Tested on: MV4,11 cells
ASSAY_PROCEDURE: FLT3 assay using MV4,11 cells (cellular proliferation, MTS)
Format: cell-based, human
CONDITION_SUMMARY: cell assay code CS0001
OUTCOME_MEASURE: Cell Assay: CS0001:IC50

Check out these entries, answers already filled in.
CC(C)(C)c1cc(NC(=O)Nc2ccc(NC(=O)c3cc4cc(Br)ccc4s3)cc2)no1 [Compound N17] ... + + + +
CC(C)(C)c1cc(NC(=O)Nc2ccc(OCCCc3ccncc3)cc2)no1 ... + + + +
CC(C)(C)c1cc(NC(=O)Nc2ccc(C(=O)Nc3ccc(Cl)cc3)cc2)no1 ... + + +
COC(=O)c1cccc(Sc2ncc(NC(=O)Nc3cc(C(C)(C)C)on3)s2)c1 ... + + +

Q: Entry under review: CC(C)(C)c1cc(NC(=O)Nc2ccc(NC(=O)c3ccc(-n4cc(-c5ccncn5)cn4)cc3)cc2)no1 . Reported Cell Assay: CS0001:IC50?
Result: + + +

Q: Param item: COc1cc(OC)nc(Nc2cccc(C(=O)Nc3ccc(NC(=O)Nc4cc(C(C)(C)C)on4)cc3)c2)n1
Result: + + + +

Q: Param item: CC(C)(C)c1cc(NC(=O)Nc2ccc(N3C(=O)c4ccccc4C3=O)cc2)no1
Result: + + + +

Where do these numbers come from? They come from patent US20050267182A1.
